- Test target: T1, human GITR (amino acids M1-V241, NCBI Accession #NP_004186.1) expressed on cells (human, UniProt Q9Y5U5 26-241)
- T1 sequence: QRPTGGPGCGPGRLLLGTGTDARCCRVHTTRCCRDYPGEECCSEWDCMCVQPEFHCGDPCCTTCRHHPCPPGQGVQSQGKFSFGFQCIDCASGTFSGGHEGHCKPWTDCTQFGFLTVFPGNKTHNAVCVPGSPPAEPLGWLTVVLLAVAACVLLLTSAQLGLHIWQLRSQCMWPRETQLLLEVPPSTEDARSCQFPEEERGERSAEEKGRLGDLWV
- Test: cell-based or functional assay
Recorded metric: fold activation, T-cell proliferation, plate-bound Ab 10.6 nM, donor 8 (fold)
Answer in fold, number only, no unit symbol.

Q: Find the recorded fold activation, T-cell proliferation, plate-bound Ab 10.6 nM, donor 8 belonging to H4H14525P (antibody, human IgG4, V domains shown, human IgG4 (H4H)) VH: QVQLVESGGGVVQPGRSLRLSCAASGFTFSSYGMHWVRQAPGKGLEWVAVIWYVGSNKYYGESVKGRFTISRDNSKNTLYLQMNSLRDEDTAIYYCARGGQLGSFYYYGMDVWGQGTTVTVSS VL: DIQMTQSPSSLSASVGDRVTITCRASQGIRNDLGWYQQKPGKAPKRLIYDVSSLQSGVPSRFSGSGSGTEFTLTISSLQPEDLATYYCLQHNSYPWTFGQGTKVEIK and report it.
Ans: 1

The measurements presented in this section are drawn from patent US20170355774A1.
